# System: DU-4475
# PROTOCOL_SUMMARY: drug sensitivity score (DSS), CellTiter-Blue viability (DSS (AUC-based score)); higher = stronger viability inhibition; extreme values may be limits of the assay
# CONDITION_INFO: incubation time: 72 h
For each record, write down the corresponding drug sensitivity score.
Please reply with the value in numeric form only.

Prompt: Entry NC(=O)NO [Hydroxyurea] : reported drug sensitivity score = ?
Response: 0

Prompt: Entry `N[C@@H](Cc1ccc(N(CCCl)CCCl)cc1)C(=O)O` : reported drug sensitivity score = ?
Response: 0

Prompt: Entry Cn1nnc2c(C(N)=O)ncn2c1=O [Temozolomide] : reported drug sensitivity score = ?
Response: 0

Prompt: Entry `COc1cc2c(N3CCN(C(=O)Nc4ccc(OC(C)C)cc4)CC3)ncnc2cc1OCCCN1CCCCC1` : reported drug sensitivity score = ?
Response: 0

Prompt: Entry `C[C@]12C=CC(=O)C=C1CC[C@@H]1[C@@H]2C(=O)C[C@@]2(C)[C@H]1CC[C@]2(O)C(=O)CO` : reported drug sensitivity score = ?
Response: 0

Prompt: Entry `CC/C(=C(\c1ccccc1)c1ccc(OCCN(C)C)cc1)c1ccccc1` : reported drug sensitivity score = ?
Response: 0

Prompt: Entry `CCN(CC)CCOc1ccc(C(=C(Cl)c2ccccc2)c2ccccc2)cc1` : reported drug sensitivity score = ?
Response: 1.29

Prompt: Entry `Cc1cc2c(F)c(Oc3ncnn4cc(OC[C@@H](C)O)c(C)c34)ccc2[nH]1` : reported drug sensitivity score = ?
Response: 0

Prompt: Entry `O=C(O)CC[C@H]1CC[C@@](c2cc(F)ccc2F)(S(=O)(=O)c2ccc(Cl)cc2)CC1` : reported drug sensitivity score = ?
Response: 0

Prompt: Entry `CO[C@H]1C[C@@H]2CC[C@@H](C)[C@@](O)(O2)C(=O)C(=O)N2CCCC[C@H]2C(=O)O[C@H]([C@H](C)C[C@@H]2CC[C@@H](O)[C@H](OC)C2)CC(=O)[C@H](C)/C=C(\C)[C@@H](O)[C@@H](OC)C(=O)[C@H](C)C[C@H](C)/C=C/C=C/C=C/1C` : reported drug sensitivity score = ?
Response: 15

Prompt: Entry `Cc1c(C(=O)Nc2ccc(N3C[C@@H](C)O[C@@H](C)C3)nc2)cccc1-c1ccc(OC(F)(F)F)cc1` : reported drug sensitivity score = ?
Response: 0

Prompt: Entry CC(C)C(=O)Nc1ccc([N+](=O)[O-])c(C(F)(F)F)c1 [Flutamide] : reported drug sensitivity score = ?
Response: 0

Prompt: Entry `COc1cc2c(Oc3ccc(NC(=O)C4(C(=O)Nc5ccc(F)cc5)CC4)cc3F)ccnc2cc1OCCCN1CCOCC1` : reported drug sensitivity score = ?
Response: 1.75

Prompt: Entry Cc1c(N)nc([C@H](CC(N)=O)NC[C@H](N)C(N)=O)nc1C(=O)N[C@H](C(=O)N[C@H](C)[C@@H](O)[C@H](C)C(=O)N[C@H](C(=O)NCCc1nc(-c2nc(C(=O)NCCC[S+](C)C)cs2)cs1)[C@@H](C)O)[C@@H](OC1OC(CO)C(O)C(O)C1OC1OC(CO)C(O)C(OC(N)=O)C1O)c1cnc[nH]1 (some centres undefined) : reported drug sensitivity score = ?
Response: 0

* * *

# Test system: CAL-85-1
# PROTOCOL_SUMMARY: normalised viability (% of control), CellTiter-Blue; higher = more viable cells (about 100 = DMSO control)
# CONDITION_INFO: incubation time: 72 h
ASSAY_READOUT: normalised viability (%)
Write the number in % without appending the unit.

Prompt: Entry COc1cc2c(N3CCN(C(=O)Nc4ccc(OC(C)C)cc4)CC3)ncnc2cc1OCCCN1CCCCC1 [Tandutinib] (30 nM) : reported normalised viability = ?
Response: 110

Prompt: Entry Cc1c(C(=O)Nc2ccc(N3C[C@@H](C)O[C@@H](C)C3)nc2)cccc1-c1ccc(OC(F)(F)F)cc1 [NVP-LDE225] (300 nM) : reported normalised viability = ?
Response: 108

Prompt: Entry CC[C@@H]1C(=O)N(C)c2cnc(Nc3ccc(C(=O)N[C@H]4CC[C@H](N5CCN(CC6CC6)CC5)CC4)cc3OC)nc2N1C(C)C [Volasertib] (30 nM) : reported normalised viability = ?
Response: 45.9

Prompt: Entry O=C(O)CC[C@H]1CC[C@@](c2cc(F)ccc2F)(S(=O)(=O)c2ccc(Cl)cc2)CC1 [MK-0752] (30 nM) : reported normalised viability = ?
Response: 100

Prompt: Entry O=NN(CCCl)C(=O)NC1CCCCC1 [Lomustine] (300 nM) : reported normalised viability = ?
Response: 104

Prompt: Entry CCN(CC)CCOc1ccc(C(=C(Cl)c2ccccc2)c2ccccc2)cc1 [Clomifene] (300 nM) : reported normalised viability = ?
Response: 102

Prompt: Entry O=C(c1cc(Cc2n[nH]c(=O)c3ccccc23)ccc1F)N1CCN(C(=O)C2CC2)CC1 [Olaparib] (300 nM) : reported normalised viability = ?
Response: 92.2
